tested on: Aspergillus fumigatus; assay: Expanded set of filamentous fungi, MIC broth microdilution (CLSI); type: cell-based; conditions: isolate DI19-231, MIC at 50% inhibition
endpoint.name: MIC50

• C/N=C(/CCNC(=O)c1cc(NC(=O)c2cc(NC(=O)c3ccc(/C=C/c4cnc5ccccc5c4)cc3)cn2C)cn1C)NC = 1 to 8 µg/mL
• CNC(=N)CCNC(=O)c1cc(NC(=O)c2cc(NC(=O)c3ccc(/C=C/c4cnc5ccccc5c4)cc3)cn2C)cn1C = ≤ 1 µg/mL
• [H]/N=C(\CCNC(=O)c1cc(NC(=O)c2cc(NC(=O)c3ccc(C=Cc4ccc(N(C)C)cc4)nc3)cn2C)cn1C)NC = 1 to 8 µg/mL

We now examine a further compound.
Q: What does the record list as MIC50 for `C/N=C(\CCNC(=O)c1cc(NC(=O)c2cc(NC(=O)c3ccc(/C=C/c4ccc(N(C)C)cc4)nc3)cn2C)cn1C)NC` ?
A: 1 to 8 µg/mL
